src = PubChem BioAssay (NCI)

For each record, write down the corresponding TGI.
Tested on: NCI-H460 lung
test.description: NCI tumour cell line growth inhibition, 48 h

## Input Dear colleague, I am looking for the recorded TGI of the following compound: CCN1/C(=C/C(C)=C/c2sc3ccccc3[n+]2CC)Sc2ccccc21
## Output 0.517 µM

## Input Please report the recorded TGI for O=C(O)CCC1(c2ccccc2)NC(=O)NC1=O (stereo not given) .
## Output > 100 µM

## Input What measured TGI goes with Cc1ccc(S(=O)(=O)N/N=C2\C=C[C@]3(CC2)C(=O)N(C)c2ccccc23)cc1 ?
## Output > 100 µM

## Input So what's the measured TGI for this one? Cc1n[nH]c(=O)n1N=C(c1ccccc1)c1ccccc1
## Output > 100 µM

## Input What value of measured TGI is listed for O=[N+]([O-])c1ccc2c(N=Nc3c(O)ccc4ccccc34)c(O)cc(S(=O)(=O)O)c2c1 ?
## Output > 100 µM

## Input Entry under review: CCN(CC)CCNc1ccc(C)c2sc3ccc(O)cc3c(=O)c12 . Reported TGI?
## Output 1.37 µM

## Input Sample COc1nc(=O)n(C2CC(N=[N+]=[N-])C(CO)O2)cc1C (stereo not given) — what was its TGI?
## Output > 100 µM

## Input What does the record list as TGI for Nc1ccn(C2OC(COP(=O)(O)Oc3ccccc3)C(O)C2O)c(=O)n1 (stereo not given) ?
## Output > 100 µM

## Input Given the entry COc1ccc([C@H]2O[C@@H](CO)C[C@]2(O)c2ccc(OC)cc2)cc1 , report its measured TGI.
## Output > 100 µM

## Input Entry under review: CN1C[C@@H]2CCCN2P1Oc1cccc2cccnc12 (stereo not given in full) . Reported TGI?
## Output > 100 µM

---

System: SK-MEL-28 melanoma
test.description: NCI tumour cell line growth inhibition, 48 h
What TGI was measured for each of the following?

## Input # lookup: TGI of Cc1nc(NC(=O)N2CCC[C@H]2C(N)=O)sc1-c1ccnc(C(C)(C)C(F)(F)F)c1
## Output > 61.6 µM

## Input Which TGI is listed for COc1ccc([C@H]2O[C@@H](CO)C[C@]2(O)c2ccc(OC)cc2)cc1 ?
## Output > 100 µM

## Input Which measured TGI value corresponds to NC(=O)N(O)c1cccc(Br)c1 ?
## Output > 100 µM

## Input For the molecule Cc1ccc(N2C(=O)/C(=C3\Sc4c(nc(C)[nH]c4=O)N3c3ccccc3)SC2=S)cc1 , what TGI is on record?
## Output > 100 µM

## Input Using the record for COC(=O)C1=C(C(=O)OC)C2(C(=O)OC)OC1(OC)C(C1(C(=O)OC)C(C(=O)OC)=C1C(=O)OC)=C2C(=O)OC (stereo not drawn) , report its TGI.
## Output > 100 µM

## Input Sample COC(=O)C1=C(O)C(C(=O)OC)[C@]2(O)[C@H](C(=O)OC)[C@H]1C[C@@H](c1ccc(OC)cc1)[C@H]2C(=O)OC (stereo partly drawn) — what was its TGI?
## Output > 100 µM

## Input Which TGI is listed for Cc1n[nH]c(=O)n1N=C(c1ccccc1)c1ccccc1 ?
## Output > 100 µM

## Input Which TGI reading was recorded for the molecule C[C@@H]1OC(=O)C[C@H]2CC(=O)N(CCc3cn(S(=O)(=O)C(F)(F)F)c4ccccc34)C[C@@H]21 ?
## Output > 100 µM

## Input Look up TGI for this molecule: O=c1nc2cc(-c3ccccc3)[nH]c2nn1-c1c(Cl)cc(Cl)cc1Cl
## Output > 100 µM

## Input Data request, read-out TGI, for CC#CC(=O)N1CCC[C@H]1c1nc(-c2ccc(C(=O)Nc3ccccn3)cc2)c2c(N)nccn12
## Output > 100 µM

## Input Need TGI of CC(=O)c1cn(-c2ccc(Cl)cc2)c(=O)c2c(N)n[nH]c12 , thanks.
## Output > 100 µM

## Input Please give the measured TGI for this molecule: COc1cc2c(cc1OC)C(Cl)C(c1cc(OC)c(OC)c(OC)c1)=C2Cl (stereo not drawn)
## Output 31.9 µM

## Input For C[C@@H]1CC[C@@]2(OC1)O[C@H]1C[C@H]3[C@@H]4CC=C5C[C@@H](O[C@@H]6O[C@H](CO)[C@@H](O[C@@H]7O[C@@H](CO)[C@H](O)[C@H]7O)[C@H](O)[C@H]6O[C@@H]6O[C@@H](C)[C@H](O)[C@@H](O)[C@H]6O)CC[C@]5(C)[C@H]4CC[C@]3(C)[C@H]1[C@@H]2C , what is its reported TGI?
## Output 2.44 µM

## Input What value of TGI has been recorded for this entry: O=[As](O)(O)c1ccc(Cc2ccc([As](=O)(O)O)cc2)cc1
## Output 2.92 µM

## Input Name the reported TGI value associated with the molecule NC(CCCCNc1ccn(C2OC(CO)C(O)C2O)c(=O)n1)C(=O)O (stereo not drawn)
## Output > 100 µM

## Input # query: TGI of entry CC(=O)Oc1c(OC(C)=O)c(-c2ccc(O)c(O)c2)c(O)c(O)c1-c1ccc(O)cc1
## Output > 100 µM

## Input # get_value(readout='TGI', item= S=C1C=C(c2ccccc2)Sc2ccccc2N1 )
## Output > 100 µM

## Input What value of TGI has been reported for the following molecule? CC/C(Cl)=N\OC(=O)Nc1ccc(C#N)cc1
## Output 33.8 µM
